B1: HDV Ribozyme (parent)
chain: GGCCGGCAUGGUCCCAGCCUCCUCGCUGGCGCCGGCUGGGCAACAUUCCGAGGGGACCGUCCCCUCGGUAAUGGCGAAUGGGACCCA

Variants of: B1
Assay: self-cleavage, relative activity (ratio to wild type); higher = more cleavage; co-transcriptional
Each entry below lists one item and its recorded self-cleavage value.
assay_metric: self-cleavage

[
  {
    "mutation": "U47C C63U",
    "result_value": 1.07
  },
  {
    "mutation": "G2C C30U",
    "result_value": 0.117
  },
  {
    "mutation": "C3A A83G",
    "result_value": 0.434
  },
  {
    "mutation": "C19A G38A",
    "result_value": 0.125
  },
  {
    "mutation": "G25U C86U",
    "result_value": 0.108
  },
  {
    "mutation": "C14A A77U",
    "result_value": 0.237
  },
  {
    "mutation": "C18G G81U",
    "result_value": 0
  },
  {
    "mutation": "C21U G52C",
    "result_value": 0.173
  },
  {
    "mutation": "C19U G52U",
    "result_value": 0.265
  },
  {
    "mutation": "C3U C33A",
    "result_value": 0.123
  },
  {
    "mutation": "C30U G81A",
    "result_value": 0.155
  },
  {
    "mutation": "C14U A77U",
    "result_value": 0.573
  },
  {
    "mutation": "C30A C66G",
    "result_value": 0.675
  },
  {
    "mutation": "C19U G40U",
    "result_value": 0.0839
  },
  {
    "mutation": "C49A G54A",
    "result_value": 0.589
  },
  {
    "mutation": "C13A U27C",
    "result_value": 0.594
  },
  {
    "mutation": "C32G C36A",
    "result_value": 0.125
  },
  {
    "mutation": "C41U G80U",
    "result_value": 0.174
  },
  {
    "mutation": "C30A G55U",
    "result_value": 0.458
  },
  {
    "mutation": "C58A A87G",
    "result_value": 1.11
  },
  {
    "mutation": "G11U U37G",
    "result_value": 0
  },
  {
    "mutation": "C48U C57A",
    "result_value": 0.972
  },
  {
    "mutation": "G34C G68C",
    "result_value": 0.128
  },
  {
    "mutation": "A77C A78G",
    "result_value": 0.151
  },
  {
    "mutation": "C41G U69A",
    "result_value": 0.609
  },
  {
    "mutation": "G39A C49G",
    "result_value": 0.366
  },
  {
    "mutation": "G54U A77G",
    "result_value": 0.878
  },
  {
    "mutation": "G6U C30G",
    "result_value": 0.0326
  },
  {
    "mutation": "A8C C63G",
    "result_value": 0.554
  },
  {
    "mutation": "C62A",
    "result_value": 0.979
  },
  {
    "mutation": "C18G C85G",
    "result_value": 0
  },
  {
    "mutation": "C32A C84A",
    "result_value": 0
  },
  {
    "mutation": "C41G G52A",
    "result_value": 0.562
  },
  {
    "mutation": "G25A U69G",
    "result_value": 0.233
  },
  {
    "mutation": "G40C C48U",
    "result_value": 0.326
  },
  {
    "mutation": "A77C G80A",
    "result_value": 0.0378
  },
  {
    "mutation": "U12C A70U",
    "result_value": 0.378
  }
]

Origin of values: the RNAGym collection of RNA variant scans (doi:10.7554/elife.80360)
